Cited source for all entries: PubChem BioAssay (NCI)

system: MDA-MB-468 breast; experiment: NCI tumour cell line growth inhibition, 48 h
# Lookup of reported TGI keyed by entry
property-name: TGI (µM)

> print(dat)
                                        mol  property.name  sign.qualifier  quantitative.result
1  O=c1c(-c2nc3ccccc3[nH]2)cc2ccccc2n1Cc1cn(Cc2ccc(F)cc2)nn1            TGI               =                 2.78
2  COc1cc(-c2cc(C(=O)N3CCN(C(=O)c4ccccc4NCc4cccs4)CC3)nc3cc(-c4ccccc4)nn23)cc(OC)c1OC            TGI               =                   14
3  Nc1c(C(=O)Nc2cccc3ccccc23)sc2nc3c(cc12)CCCCCC3            TGI               =                 11.6
4  Cc1nc(N(C)C)nc(-c2cccc(-c3ccn(CCN(C)C)n3)c2)c1C            TGI               >                   20

---

system: MDA-MB-468 breast; assay: NCI tumour cell line growth inhibition, 48 h; in the data active = GI50 below about 0.43 µM; inactive = the rest
Classes used: label 1 (active), label 0 (inactive)

> print(dat)
                                         mol  experimental.system  class.label
 1   Nc1nc(-c2ccccc2Cl)cc(-c2ccc(Cl)cc2Cl)n1    MDA-MB-468 breast      label 0
 2               C=C(C=O)[C@@H]1CC=C(C=O)CC1    MDA-MB-468 breast      label 0
 3         CN(Cc1cccc(Cl)c1)c1ccc(CO)c(Cl)c1    MDA-MB-468 breast      label 1
 4  COc1ccc2[nH]c(O)c(N=NC(=O)Cn3c(-c4ccccc4)nc4cc(C)ccc43)c2c1    MDA-MB-468 breast      label 0
 5  CCCCCCCCCCCC(=O)[O][Sn]([CH2]CCC)([CH2]CCC)[CH2]CCC    MDA-MB-468 breast      label 1
 6  COc1cc(Nc2nccc(-c3cnn4ncccc34)n2)cc(OC)c1    MDA-MB-468 breast      label 1
 7  O=C(/C=C/c1ccco1)c1cccc(Nc2nc(Nc3ccccc3)nc(Nc3ccccc3)n2)c1    MDA-MB-468 breast      label 0
 8  COc1cccc(-c2nn(C)c3sc(C(=O)NCCN4CCN(c5ccccc5F)CC4)cc23)c1    MDA-MB-468 breast      label 0
 9  COc1ccc2c(c1)cn1c3ccc(OC)cc3[nH]c(=O)c21    MDA-MB-468 breast      label 1
10  COc1cc(-c2nc3cc(Cl)c(Cl)cc3[nH]2)ccc1OCC(=O)N=Nc1c(O)[nH]c2ccccc12    MDA-MB-468 breast      label 1
11  Nc1ncnc2c1c(-c1ccc(Oc3ccccc3)cc1)nn2C[C@H]1SSC[C@H]1O    MDA-MB-468 breast      label 1
12  O=C(N/N=C/c1ccoc1)c1[nH]c2ccc(Br)cc2c1-c1ccccc1    MDA-MB-468 breast      label 1

---

test system: MDA-MB-468 breast; assay: NCI tumour cell line growth inhibition, 48 h
property-name: TGI (µM)

> print(dat)
                                   molecule  sign.qualifier  quantitative.result
1  CCOC(=O)C1=CN(Cc2ccccc2)C2ON=C(c3ccc(Cl)cc3)C2C1 (centres undefined)               >                  100
2  COc1ccc(-c2nn(C(=O)c3cc(OC)c(OC)c(OC)c3)c3cc(N)ccc23)cc1               =                 0.19
3  NC(CSC(c1ccccc1)(c1ccccc1)c1ccc(Br)cc1)C(=O)O (centres undefined)               >                 31.6
4  CCOc1ccc(NC2=C(Cl)C(=O)c3nc(C)ccc3C2=O)cc1               =                 2.92
5  O=C(/C=C/c1ccco1)c1cccc(Nc2nc(Nc3ccccc3)nc(Nc3ccccc3)n2)c1               =                 28.9
6  COc1ccc(S(=O)(=O)Nc2c(/C=C\c3cc(OC)c(OC)c(OC)c3)ccc(OC)c2O)cc1OC               =                0.441
7  CCc1cc(Cc2cc(CC)cc(C(C)(C)C)c2O)c(O)c(C(C)(C)C)c1               =                 13.2
8  O=C1COCCN1c1ccc(NCc2cn(Cc3ccc(F)cc3)c3ccccc23)cc1               =               0.0783
9  COc1cc2oc(-c3cccc(C(=O)Nc4ccc(Cl)cc4)c3)cc(=O)c2c(OCCNC(=O)[C@@H](N)CO)c1OC               =                 3.63
